Overview of recorded koff for various binders
Molecular target: T1, hNPR1-mFc:hANP or hNPR1-hFc:hANP complex (human, UniProt P01160 124-151)
T1 construct: also called human NPR1 complexed to ANP
Test: SPR, mAb captured, 37C

{"BINDER": "mAb25502 (antibody, human IgG4, V domains shown) VH: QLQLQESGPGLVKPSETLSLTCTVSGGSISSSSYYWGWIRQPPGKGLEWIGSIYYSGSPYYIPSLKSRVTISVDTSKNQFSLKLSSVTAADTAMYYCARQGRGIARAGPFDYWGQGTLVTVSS VL: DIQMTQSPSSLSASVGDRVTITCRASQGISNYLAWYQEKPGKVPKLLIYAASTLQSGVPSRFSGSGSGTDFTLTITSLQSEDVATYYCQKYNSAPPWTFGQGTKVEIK", "QUANTITY_UNIT": "s⁻¹", "koff": 0.000467}
{"BINDER": "mAb25491 (antibody, human IgG4, V domains shown) VH: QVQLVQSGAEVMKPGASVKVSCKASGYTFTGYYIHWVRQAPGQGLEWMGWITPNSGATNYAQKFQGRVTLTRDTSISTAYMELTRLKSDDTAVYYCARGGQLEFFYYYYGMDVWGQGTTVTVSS VL: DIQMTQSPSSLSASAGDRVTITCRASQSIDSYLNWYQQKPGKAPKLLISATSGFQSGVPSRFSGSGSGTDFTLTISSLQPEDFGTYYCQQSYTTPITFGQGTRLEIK", "QUANTITY_UNIT": "s⁻¹", "koff": 0.000111}
{"BINDER": "mAb22033 (antibody, human IgG4, V domains shown) VH: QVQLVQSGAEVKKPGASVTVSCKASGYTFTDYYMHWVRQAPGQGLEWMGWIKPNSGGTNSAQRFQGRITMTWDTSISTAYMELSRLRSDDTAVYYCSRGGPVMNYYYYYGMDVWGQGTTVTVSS VL: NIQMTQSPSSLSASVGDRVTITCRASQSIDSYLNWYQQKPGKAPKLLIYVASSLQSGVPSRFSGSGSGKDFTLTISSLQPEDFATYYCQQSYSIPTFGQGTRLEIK", "QUANTITY_UNIT": "s⁻¹", "koff": "9.8e-05"}
{"BINDER": "mAb25508 (antibody, human IgG4, V domains shown) VH: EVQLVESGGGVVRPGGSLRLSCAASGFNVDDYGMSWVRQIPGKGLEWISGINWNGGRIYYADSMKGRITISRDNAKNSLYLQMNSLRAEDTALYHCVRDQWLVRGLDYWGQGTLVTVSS VL: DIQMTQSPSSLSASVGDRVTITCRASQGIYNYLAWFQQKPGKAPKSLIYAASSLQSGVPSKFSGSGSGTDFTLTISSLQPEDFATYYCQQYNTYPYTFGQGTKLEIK", "QUANTITY_UNIT": "s⁻¹", "koff": 0.000148}
{"BINDER": "mAb22035 (antibody, human IgG4, V domains shown) VH: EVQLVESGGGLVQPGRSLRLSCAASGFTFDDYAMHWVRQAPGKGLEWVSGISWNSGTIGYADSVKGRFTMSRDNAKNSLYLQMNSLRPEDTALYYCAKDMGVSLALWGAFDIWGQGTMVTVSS VL: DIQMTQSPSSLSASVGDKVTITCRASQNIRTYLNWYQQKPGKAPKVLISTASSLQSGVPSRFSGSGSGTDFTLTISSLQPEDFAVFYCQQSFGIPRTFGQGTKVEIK", "QUANTITY_UNIT": "s⁻¹", "koff": 0.000114}
